Biological target: human liver glycogen phosphorylase a (HLGPa) (Homo sapiens, UniProt P06737)
Construct: creating a full-length cDNA fused at the 5′ end to codons for methionine-glycine-alanine-histidine; 6x histidine tag (leader Met-Gly-Ala-His6-Gly-Gly) (N); Tev protease cleavage site (Glu-Asn-Leu-Tyr-Phe-Gln-Gly-Gly) (N)
Sequence (P06737 2-847): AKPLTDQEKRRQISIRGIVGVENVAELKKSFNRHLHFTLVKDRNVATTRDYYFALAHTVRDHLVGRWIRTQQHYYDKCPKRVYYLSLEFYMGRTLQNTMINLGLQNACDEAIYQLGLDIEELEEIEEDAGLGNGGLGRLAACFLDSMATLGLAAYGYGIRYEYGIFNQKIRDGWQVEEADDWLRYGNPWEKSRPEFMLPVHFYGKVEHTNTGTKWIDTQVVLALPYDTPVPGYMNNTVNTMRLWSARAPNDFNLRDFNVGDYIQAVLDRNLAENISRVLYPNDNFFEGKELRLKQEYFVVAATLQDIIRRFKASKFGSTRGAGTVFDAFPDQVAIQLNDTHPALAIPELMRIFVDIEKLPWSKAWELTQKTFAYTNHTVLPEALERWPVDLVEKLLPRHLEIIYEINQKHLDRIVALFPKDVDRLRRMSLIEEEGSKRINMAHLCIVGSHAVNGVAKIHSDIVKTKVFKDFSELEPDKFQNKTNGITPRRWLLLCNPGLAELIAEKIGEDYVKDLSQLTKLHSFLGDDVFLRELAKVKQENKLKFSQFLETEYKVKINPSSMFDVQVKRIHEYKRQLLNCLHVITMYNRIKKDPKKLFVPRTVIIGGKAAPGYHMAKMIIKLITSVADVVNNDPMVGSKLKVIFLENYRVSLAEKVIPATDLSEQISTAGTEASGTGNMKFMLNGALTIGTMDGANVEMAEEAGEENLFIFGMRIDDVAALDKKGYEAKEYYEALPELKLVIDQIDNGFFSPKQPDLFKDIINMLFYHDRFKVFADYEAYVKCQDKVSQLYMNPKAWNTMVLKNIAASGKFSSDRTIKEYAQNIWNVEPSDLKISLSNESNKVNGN
Experiment: Human liver glycogen phosphorylase a enzymatic activity assay
Settings: 15 nM HLGPa, coupled resorufin fluorescence readout, 15 min preincubation; assay run with and without 10 mM glucose, not stated which applies
endpointLabel: IC50 (nM)
Answers are plain numbers, in nM.

**Query** What value of IC50 has been reported for the following compound? COCCOc1ccc(C(=O)N[C@H](C(=O)O)[C@@H](C)OC(C)(C)C)c(NC(=O)Nc2c(C)cc(CC3CC3)cc2C)c1 [Example 1]
**Result** 4
